- Tested on: Staphylococcus aureus
- test: Antibacterial activity against Staphylococcus aureus ATCC 25923 by two fold broth dilution method
- Type: functional
readout_kind: MIC (µg/mL)
State just the number; it will be interpreted in µg/mL.

Illustrative cases are given below, each with its answer.
query: // fetch MIC given entry O=[N+]([O-])c1c[nH]c(-c2nnc(Cc3ccc(F)c4ccccc34)o2)c1
result: 1.56

query: Look up and state reported MIC for O=C(O)c1cn(C2CC2)c2cc(N3CCNCC3)c(F)cc2c1=O
result: 1.56

Next:
query: For the compound O=[N+]([O-])c1c[nH]c(-c2nnc(-c3ccns3)o2)c1 , give its measured MIC value.
result: 1.56

query: Provide one value: measured MIC of O=[N+]([O-])c1c[nH]c(-c2nnc(-c3cccs3)o2)c1
result: 1.56

query: Consider the compound Cn1cc([N+](=O)[O-])cc1-c1nnc(-c2cc3ccccc3[nH]2)o1 and give its recorded MIC.
result: 0.78

query: Report measured MIC; entry is Cn1cc([N+](=O)[O-])cc1-c1nnc(-c2ccco2)o1
result: 0.78

###

- Tested on: Staphylococcus aureus
- test: Antibacterial activity against Staphylococcus aureus ATCC 25923 by two fold broth dilution method
- Assay type: functional
readout_kind: MIC (µg/mL)
Numeric answer only, unit µg/mL assumed.

Please review the following examples before continuing.
query: Indicate its recorded MIC; the compound in question is Cc1ccc(-c2nnc(-c3cc([N+](=O)[O-])c[nH]3)o2)s1
result: 1.56

query: Using known records, supply MIC for Cn1cc([N+](=O)[O-])cc1-c1nnc(-c2ccccc2OC(F)(F)F)o1
result: 0.78

query: Answer with reported MIC of Cn1cc([N+](=O)[O-])cc1-c1nnc(Cc2ccccc2F)o1
result: 0.78

More entries:
query: Return value of MIC for input O=[N+]([O-])c1c[nH]c(-c2nnc(-c3ccccc3Br)o2)c1 , no commentary.
result: 1.56

query: Return MIC for the following compound: COc1cc(/C=C/c2nnc(-c3cc([N+](=O)[O-])cn3C)o2)ccc1O
result: 0.78

query: Supply measured MIC of COc1cccc(OC)c1-c1nnc(-c2cc([N+](=O)[O-])c[nH]2)o1 in your reply.
result: 1.56

query: Tell me MIC reported for O=[N+]([O-])c1c[nH]c(-c2nnc(-c3cc(-c4ccccc4)nc4ccc(Cl)cc34)o2)c1
result: 1.56

query: Give reported MIC value for O=[N+]([O-])c1c[nH]c(-c2nnc(-c3ccccc3)o2)c1
result: 3.12

query: Specify MIC for O=[N+]([O-])c1c[nH]c(-c2nnc(-c3cccc([N+](=O)[O-])c3O)o2)c1 and stop.
result: 1.56

query: Quickly give me recorded MIC for COc1ccc(-c2nnc(-c3cc([N+](=O)[O-])c[nH]3)o2)cc1
result: 1.56

###

Here the recorded MIC is given for each entry.
- Tested on: Staphylococcus aureus
- test: Antibacterial activity against Staphylococcus aureus ATCC 25923 by two fold broth dilution method
- Type: functional
Provide only the numeric value, understood in µg/mL.

query: Please report MIC for the following compound: COc1cccc(OC)c1-c1nnc(-c2cc([N+](=O)[O-])cn2C)o1
result: 0.78

query: Please give the documented MIC of Cn1cc([N+](=O)[O-])cc1-c1nnc(-c2ccc(C#N)cc2)o1
result: 0.78

query: State, in one line, measured MIC of O=[N+]([O-])c1c[nH]c(-c2nnc(-c3ccccc3O)o2)c1
result: 1.56

query: For COc1cccc(-c2nnc(-c3cc([N+](=O)[O-])cn3C)o2)c1 , write its MIC.
result: 0.78

query: // Input: Cn1cc([N+](=O)[O-])cc1-c1nnc(-c2cccs2)o1 . Output its MIC only.
result: 0.78

query: Tell me its MIC given COc1cc(/C=C/c2nnc(-c3cc([N+](=O)[O-])c[nH]3)o2)ccc1O as the entry.
result: 3.12

query: Identify measured MIC corresponding to O=[N+]([O-])c1c[nH]c(-c2nnc(C3CCCNC3)o2)c1 (stereo not given)
result: 1.56

query: Complete the entry with MIC for Cn1cc([N+](=O)[O-])cc1-c1nnc(-c2cc3cc(Cl)ccc3[nH]2)o1
result: 0.39

query: For the compound Cn1cc([N+](=O)[O-])cc1-c1nnc(-c2ccccc2Br)o1 , give its measured MIC value.
result: 0.78

Kindly consider the entry below.
query: Identify the reported MIC for the following entry. O=[N+]([O-])c1c[nH]c(-c2nnc(-c3ccco3)o2)c1
result: 0.78

###

- Test system: Klebsiella pneumoniae
- test: Antibacterial activity against Klebsiella pneumoniae by two fold broth dilution method
- Assay type: functional
readout_kind: MIC (µg/mL)
# value in µg/mL; strip the unit string

query: Given the compound O=[N+]([O-])c1c[nH]c(-c2nnc(Cc3ccccc3F)o2)c1 , write its reported MIC.
result: 25

query: Write down MIC measured for item Cn1cc([N+](=O)[O-])cc1-c1nnc(Cc2ccc(F)c3ccccc23)o1
result: 12.5

query: Give MIC for O=[N+]([O-])c1c[nH]c(-c2nnc(-c3ccccc3O)o2)c1
result: 25

query: Complete the entry with MIC for Cn1cc([N+](=O)[O-])cc1-c1nnc(-c2cc3cc(Cl)ccc3[nH]2)o1
result: 12.5

query: Report measured MIC; entry is N#Cc1ccc(-c2nnc(-c3cc([N+](=O)[O-])c[nH]3)o2)cc1
result: 25

query: Name the recorded MIC of the item COc1ccc(-c2nnc(-c3cc([N+](=O)[O-])cn3C)o2)cc1 in your answer.
result: 12.5

query: Hello, please tell me recorded MIC for this one: COc1cccc(OC)c1-c1nnc(-c2cc([N+](=O)[O-])cn2C)o1
result: 12.5

query: Answer with the recorded MIC of Cn1cc([N+](=O)[O-])cc1-c1nnc(-c2ccccc2OC(F)(F)F)o1 only.
result: 12.5

query: Complete the entry with MIC for COc1cccc(-c2nnc(-c3cc([N+](=O)[O-])c[nH]3)o2)c1
result: 25

Switching to the query record.
query: State its MIC: O=[N+]([O-])c1c[nH]c(-c2nnc(-c3cccs3)o2)c1
result: 25

###

- Test system: Vero
- test: Cytotoxicity against african green monkey Vero cells after 72 hrs by MTT assay
- Type: cell-based
- condition_details: Chlorocebus sabaeus
Quick reference for IC50 among some molecules
Express the result in µM but write the number alone.

Worked examples, 5 molecules total:
query: Given N#Cc1ccc(-c2nnc(-c3cc([N+](=O)[O-])c[nH]3)o2)cc1 , respond with its IC50.
result: 199

query: For Cn1cc([N+](=O)[O-])cc1-c1nnc(-c2ccc[nH]2)o1 , write its IC50.
result: 208

query: Give the measured IC50 for O=[N+]([O-])c1c[nH]c(-c2nnc(-c3cccc([N+](=O)[O-])c3O)o2)c1
result: 498

query: Tell me its IC50 given Cn1cc([N+](=O)[O-])cc1-c1nnc(-c2cccc([N+](=O)[O-])c2O)o1 as the entry.
result: 269

query: Give recorded IC50. COc1ccc(-c2nnc(-c3cc([N+](=O)[O-])c[nH]3)o2)cc1
result: 409

---
query: Recall and state the measured IC50 for COc1cccc(-c2nnc(-c3cc([N+](=O)[O-])cn3C)o2)c1 .
result: 299

query: Read off the recorded IC50 for O=[N+]([O-])c1c[nH]c(-c2nnc(-c3ccccc3Br)o2)c1
result: 190

query: Give IC50 for COc1cccc(-c2nnc(-c3cc([N+](=O)[O-])c[nH]3)o2)c1
result: 429

query: Dear colleague, please send me the reported IC50 for O=[N+]([O-])c1c[nH]c(-c2nnc(-c3ccccc3O)o2)c1 when you can.
result: 375

query: Supply recorded IC50 for O=[N+]([O-])c1c[nH]c(-c2nnc(-c3ccccc3)o2)c1 here.
result: 423

query: Please indicate IC50 recorded for O=[N+]([O-])c1c[nH]c(-c2nnc(-c3ccc[nH]3)o2)c1
result: 226

query: Give the reported value of IC50 for this record: Cn1cc([N+](=O)[O-])cc1-c1nnc(C2CCCNC2)o1 (stereo not given)
result: 611

query: Fill in IC50 for record O=[N+]([O-])c1c[nH]c(-c2nnc(-c3cccs3)o2)c1
result: 418

query: // fetch IC50 given entry O=[N+]([O-])c1c[nH]c(-c2nnc(C3CCCNC3)o2)c1 (stereo not given)
result: 318

query: Write down IC50 measured for item Cn1cc([N+](=O)[O-])cc1-c1nnc(-c2cc3cc(Cl)ccc3[nH]2)o1
result: 743

query: Answer with the recorded IC50 of O=[N+]([O-])c1c[nH]c(-c2nnc(C3(c4ccccc4)CC3)o2)c1 only.
result: 380

query: Recall and state the measured IC50 for Cn1cc([N+](=O)[O-])cc1-c1nnc(-c2cc(-c3ccccc3)nc3ccc(Cl)cc23)o1 .
result: 328

query: Given the molecule O=[N+]([O-])c1c[nH]c(-c2nnc(Cc3ccccc3F)o2)c1 , write its reported IC50.
result: 620

query: Report IC50 for Cn1cc([N+](=O)[O-])cc1-c1nnc(-c2ccc(Cl)cc2Cl)o1
result: 387

query: Read off the recorded IC50 for O=[N+]([O-])c1c[nH]c(-c2nnc(-c3cc4cc(Cl)ccc4[nH]3)o2)c1
result: 329

query: Quick one: give measured IC50 for O=[N+]([O-])c1c[nH]c(-c2nnc(Cc3ccc(F)c4ccccc34)o2)c1
result: 229
